These measurements were taken from patent US8685992B2.

Tested on: Calu-6
Test: Cancer cell growth inhibition, Calu-6
Assay type: cell-based, human
Conditions: Homo sapiens; Calu-6, Lung Cancer, 72 h treatment
Please go through the items and note down their IC50.
Answers are plain numbers, in nM.

Check out these entries, answers already filled in.
- GIVEN SMILES: "O=C(NO)c1ccc(CNC(=O)c2[nH]c(-c3ccoc3)cc2-c2ccc(O)cc2)cc1"
  PARAMETER MEASURED: "IC50"
  READING UNIT: "nM"
  ASSAY VALUE: 9600
- GIVEN SMILES: "COc1ccc(-c2cc(-c3ccsc3)c(C(=O)NCc3ccc(C(=O)NO)cc3)[nH]2)cc1"
  PARAMETER MEASURED: "IC50"
  READING UNIT: "nM"
  ASSAY VALUE: 726

Fill in IC50 for each of the 3 compounds listed.
1. O=C(NO)c1ccc(CNC(=O)c2[nH]c(-c3ccc(O)cc3)cc2-c2ccsc2)cc1
2. O=C(NO)c1ccc(CNC(=O)c2[nH]c(-c3ccc(O)cc3)cc2-c2ccoc2)cc1
3. COc1ccc(-c2cc(-c3ccoc3)c(C(=O)NCc3ccc(C(=O)NO)cc3)[nH]2)cc1

Reply:
4070
1220
492

---

Record form. Attribute: IC50. Fill in for each entry.
System: Bx-PC-3
Assay: Cancer cell growth inhibition, Bx-PC-3
Type: cell-based, human
Conditions: Homo sapiens, BXPC-3; Bx-PC-3, Pancreatic Cancer, 72 h treatment
Reply with the number, then its unit.

Solved entries (count: 4):
- GIVEN SMILES: "COc1ccc(-c2cc(-c3ccoc3)c(C(=O)NCc3ccc(C(=O)NO)cc3)[nH]2)cc1"
  TEST TARGET: "Bx-PC-3"
  IC50: "0.775 µM"
- GIVEN SMILES: "O=C(NO)c1ccc(CNC(=O)c2[nH]c(-c3ccoc3)cc2-c2ccc(O)cc2)cc1"
  TEST TARGET: "Bx-PC-3"
  IC50: "7.73 µM"
- GIVEN SMILES: "O=C(NO)c1ccc(CNC(=O)c2[nH]c(-c3ccc(O)cc3)cc2-c2ccoc2)cc1"
  TEST TARGET: "Bx-PC-3"
  IC50: "2.25 µM"
- GIVEN SMILES: "COc1ccc(-c2cc(-c3ccsc3)c(C(=O)NCc3ccc(C(=O)NO)cc3)[nH]2)cc1"
  TEST TARGET: "Bx-PC-3"
  IC50: "8.28 µM"

Next:
Ask: Given the entry "O=C(NO)c1ccc(CNC(=O)c2[nH]c(-c3ccc(O)cc3)cc2-c2ccsc2)cc1" , report its measured IC50.
Reply: 6.83 µM

---

Tested on: HCT-116
Assay: Cancer cell growth inhibition, HCT-116
Assay type: cell-based, human
Settings: HCT-116, Colorectal Cancer, 72 h treatment
PARAMETER MEASURED: pIC50
Give bare numbers, as −log10 of the molar value.

Ask: Look up pIC50 for this compound: O=c1[nH]cc(F)c(=O)[nH]1 [Example 5-FU, 5-FU, reference compound]
Reply: 5.77

---

Test system: MCF-7
Assay: Cancer cell growth inhibition, MCF-7
Type: cell-based, human
Conditions: MCF-7, Breast Cancer, 72 h treatment
PARAMETER MEASURED: pIC50
Give bare numbers, as −log10 of the molar value.

Ask: Notebook entry, MCF-7 assay: pIC50 of N.N.[Cl][Pt][Cl] [Cisplatin, reference compound] = ?
Reply: 5.11

---

Target: Human HDAC8 (Homo sapiens (Human))
Assay: HDAC8 fluorogenic peptide deacetylation assay
Type: biochemical
Conditions: human HDAC8, 50 μM substrate, 30° C., 2 h; read-out: IC50 (nM) of enzyme activity HDAC8
Consider the following molecules; for each one, report its IC50.
Answers are plain numbers, in nM.

- GIVEN SMILES: "O=C(NO)c1ccc(CNC(=O)c2[nH]c(-c3ccoc3)cc2-c2ccc(O)cc2)cc1"
  TEST TARGET: "Human HDAC8 (Homo sapiens (Human))"
  PARAMETER MEASURED: "IC50"
  READING UNIT: "nM"
  ASSAY VALUE: 227

Ask: Look up IC50 for this molecule: "O=C(NO)c1ccc(CNC(=O)c2[nH]c(-c3cccs3)cc2-c2ccc(F)cc2)nc1"
Reply: 181

---

Tested on: SK-HEP-1
Experiment: Cancer cell growth inhibition, SK-HEP-1
Format: cell-based
Details: Homo sapiens, SK-HEP1; SK-HEP-1, Liver Cancer, 72 h treatment
PARAMETER MEASURED: pIC50
Numbers only, as −log10 of the molar value.

Answered examples (4):
- MOLECULE: "O=C(NO)c1ccc(CNC(=O)c2[nH]c(-c3ccc(O)cc3)cc2-c2ccoc2)cc1"
  pIC50: 6.35
- MOLECULE: "COc1cccc2c1C(=O)c1c(O)c3c(c(O)c1C2=O)C[C@@](O)(C(=O)CO)C[C@@H]3O[C@H]1C[C@H](N)[C@H](O)[C@H](C)O1 [Doxorubicin, reference compound]"
  pIC50: 6.78
- MOLECULE: "O=C(NO)c1ccc(CNC(=O)c2[nH]c(-c3ccc(O)cc3)cc2-c2ccsc2)cc1"
  pIC50: 5.76
- MOLECULE: "O=C(NO)c1ccc(CNC(=O)c2[nH]c(-c3ccoc3)cc2-c2ccc(O)cc2)cc1"
  pIC50: 5.35

// each molecule listed below needs its pIC50
1. COc1ccc(-c2cc(-c3ccoc3)c(C(=O)NCc3ccc(C(=O)NO)cc3)[nH]2)cc1
2. COc1ccc(-c2cc(-c3ccsc3)c(C(=O)NCc3ccc(C(=O)NO)cc3)[nH]2)cc1

Reply:
[5.96, 5.00]

---

Tested on: SK-MES-1
Assay: Cancer cell growth inhibition, SK-MES-1
Assay type: cell-based, human
Conditions: Homo sapiens; SK-MES-1, Lung Cancer, 72 h treatment
pIC50: −log10 of the molar value.
Please use condition met whenever pIC50 is not below 5, and condition not met whenever it is.

Field: example entries. Status: answers known.
- GIVEN SMILES: "COc1ccc(-c2cc(-c3ccoc3)c(C(=O)NCc3ccc(C(=O)NO)cc3)[nH]2)cc1"
  GROUP LABEL: "condition met"
- GIVEN SMILES: "COc1ccc(-c2cc(-c3ccsc3)c(C(=O)NCc3ccc(C(=O)NO)cc3)[nH]2)cc1"
  GROUP LABEL: "condition met"
- GIVEN SMILES: "O=C(NO)c1ccc(CNC(=O)c2[nH]c(-c3ccc(O)cc3)cc2-c2ccsc2)cc1"
  GROUP LABEL: "condition not met"

We now examine a further compound.
Ask: Check the entry "O=C(NO)c1ccc(CNC(=O)c2[nH]c(-c3ccc(O)cc3)cc2-c2ccoc2)cc1" : does pIC50 equal or exceed 5?
Reply: condition met

---

Test system: HT-1080
Experiment: Cancer cell growth inhibition, HT-1080
Format: cell-based
Details: Homo sapiens; HT-1080, Fibrosarcoma, 72 h treatment
PARAMETER MEASURED: pIC50
Give bare numbers, as −log10 of the molar value.

// solved cases for pIC50 follow
- COMPOUND: "O=C(NO)c1ccc(CNC(=O)c2[nH]c(-c3ccc(O)cc3)cc2-c2ccoc2)cc1"
  pIC50: 6.23
- COMPOUND: "O=C(NO)c1ccc(CNC(=O)c2[nH]c(-c3ccc(O)cc3)cc2-c2ccsc2)cc1"
  pIC50: 5.82
- COMPOUND: "COc1cccc2c1C(=O)c1c(O)c3c(c(O)c1C2=O)C[C@@](O)(C(=O)CO)C[C@@H]3O[C@H]1C[C@H](N)[C@H](O)[C@H](C)O1 [Doxorubicin, reference compound]"
  pIC50: 7.59

# return pIC50 for each item in the list
1. COc1ccc(-c2cc(-c3ccoc3)c(C(=O)NCc3ccc(C(=O)NO)cc3)[nH]2)cc1
2. O=C(NO)c1ccc(CNC(=O)c2[nH]c(-c3ccoc3)cc2-c2ccc(O)cc2)cc1
3. COc1ccc(-c2cc(-c3ccsc3)c(C(=O)NCc3ccc(C(=O)NO)cc3)[nH]2)cc1

Reply:
1: 6.79; 2: 5.74; 3: 5.96

---

Exercise: state measured IC50 for each of the molecules provided.
Target: Human HDAC8 (Homo sapiens (Human), UniProt Q9BY41)
Sequence (Q9BY41 whole entry): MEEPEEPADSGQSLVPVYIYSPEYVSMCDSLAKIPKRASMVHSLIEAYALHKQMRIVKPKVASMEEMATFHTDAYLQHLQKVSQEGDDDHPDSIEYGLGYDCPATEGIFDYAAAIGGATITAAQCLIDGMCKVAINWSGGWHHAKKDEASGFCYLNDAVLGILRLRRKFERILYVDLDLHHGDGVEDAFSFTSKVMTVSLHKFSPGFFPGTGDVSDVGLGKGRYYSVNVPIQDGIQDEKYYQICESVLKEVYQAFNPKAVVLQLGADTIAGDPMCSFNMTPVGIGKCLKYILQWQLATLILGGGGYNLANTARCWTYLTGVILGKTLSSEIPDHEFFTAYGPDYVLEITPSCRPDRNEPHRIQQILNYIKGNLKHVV
Assay: HDAC8 fluorogenic peptide deacetylation assay
Format: biochemical
Conditions: human HDAC8, 50 μM substrate, 30° C., 2 h; read-out: IC50 (nM) of enzyme activity HDAC8
Answers are plain numbers, in nM.

The cases that follow already have their IC50 on record.
- MOLECULE: "O=C(NO)c1ccc(CNC(=O)c2[nH]c(-c3ccoc3)cc2-c2ccc(F)cc2)cc1"
  IC50 (nM): 124
- MOLECULE: "O=C(NO)c1ccc(CNC(=O)c2[nH]c(-c3ccccc3)cc2-c2ccc(O)cc2)cc1"
  IC50 (nM): 340
- MOLECULE: "O=C(NO)c1ccc(CNC(=O)c2[nH]c(-c3ccc(O)cc3)cc2-c2ccoc2)cc1"
  IC50 (nM): 74.8
- MOLECULE: "O=C(NO)c1ccc(CNC(=O)c2[nH]c(-c3cccs3)cc2-c2ccc(O)cc2)cc1"
  IC50 (nM): 559
- MOLECULE: "COc1ccc(-c2cc(-c3ccccc3)[nH]c2C(=O)NCCCCCC(=O)NO)cc1 [Kendine 91, reference compound]"
  IC50 (nM): 146

# context switch: different molecule, same IC50
Ask: Fill blank: measured IC50 of the molecule "COc1ccc(-c2cc(-c3ccoc3)c(C(=O)NCc3ccc(C(=O)NO)cc3)[nH]2)cc1" is ____.
Reply: 148
